system: NCI-H226 lung; experiment: NCI tumour cell line growth inhibition, 48 h

{"compound": "Cc1cc(C)c2c(c1)C(=O)C1(C2)Cc2c(ccc(C)c2C)C1=O (stereo not given)", "TGI": "> 100 µM"}
{"compound": "COC(=O)c1cc(C)n(NC(=O)OC(C)(C)C)c1C", "TGI": "> 100 µM"}
{"compound": "FC(F)(F)C1=NC(=NNc2nnc(-c3ccccc3)c(-c3ccccc3)n2)N=C(C(F)(F)F)C1", "TGI": "> 100 µM"}
{"compound": "COc1ccc(-n2cc(-c3ccc(OC)c(OC)c3)nc2SCc2ccccc2)cc1Cl", "TGI": "> 100 µM"}
{"compound": "Cc1ccc(-c2cc(/C=N/O)on2)cc1", "TGI": "> 100 µM"}
{"compound": "CC1OC(OC2C(O[C@@H]3C[C@@H]4CC[C@@H]5[C@H](CC[C@]6(C)[C@@H]7[C@H](C[C@@H]56)O[C@]5(CC[C@@H](C)CO5)[C@H]7C)[C@@]4(C)C[C@H]3O)OC(CO)C(OC3OC(CO)C(O)C(O)C3O)C2O)C(O)C(O)C1O (stereo not given in full)", "TGI": "3.25 µM"}
{"compound": "CO[C@]12C[C@H](CNC(=O)c3cc(Br)c(Br)[nH]3)O[C@H]1NC(=O)N2", "TGI": "> 100 µM"}
{"compound": "Cc1cc(=O)[nH]c2c3c(ccc12)OC(C)(C)C=C3", "TGI": "> 33.6 µM"}
{"compound": "Cc1onc(-c2c(F)cccc2Cl)c1C(=O)N[C@@H]1C(=O)N2[C@@H]1SC(C)(C)[C@@H]2C(=O)O", "TGI": "> 100 µM"}
{"compound": "COC(=O)/C(=N\\O)C(C(=O)C=C(C)C)C(=O)C(=O)Nc1ccccc1C (stereo not given)", "TGI": "> 100 µM"}
